Target: his-labeled human IL-13 (immunogen A) (human) (UniProt P35225)
Experiment: cell-based or functional assay
metric_name: TARC (pg/mL), A549 cells + IL-13 5 ng/mL + TNFα; antibody at 0.021 nM
Give bare numbers, in pg/mL.

Q. TARC (pg/mL), A549 cells + IL-13 5 ng/mL + TNFα; antibody at 0.021 nM lookup needed for 28A2E11 (lead antibody, mouse hybridoma) (antibody, V domains shown, Mouse monoclonal antibody purified from hybridoma supernatant on Protein G) VH: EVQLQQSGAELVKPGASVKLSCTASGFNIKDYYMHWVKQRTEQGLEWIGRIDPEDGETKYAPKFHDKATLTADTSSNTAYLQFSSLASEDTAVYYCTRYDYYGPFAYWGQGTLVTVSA VL: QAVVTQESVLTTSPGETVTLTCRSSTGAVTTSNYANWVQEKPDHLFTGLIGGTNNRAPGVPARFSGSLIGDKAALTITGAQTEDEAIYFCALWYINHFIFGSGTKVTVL , thanks.
A. 1590
